experiment: Solubility testing in water, SGF, FaSSIF, FeSSIF at 37° C.; format: physicochemical; conditions: pH of sample in FeSSIF (pH of media 5.0), 2 h
Counter-ions that a name gives are not always drawn.
Hi there, I'd appreciate the recorded pH for every entry that follows.

Worked examples, 3 compounds total:
compound	pH
NCc1ccc(C(=O)Nc2ccncc2F)cc1-c1cccc(C(=O)Nc2ccc(SC[C@H]3CCOC3=O)cc2)c1 [Freebase Form I]	5.0
NCc1ccc(C(=O)Nc2ccncc2F)cc1-c1cccc(C(=O)Nc2ccc(SC[C@H]3CCOC3=O)cc2)c1 [Succinate Form I]	4.8
NCc1ccc(C(=O)Nc2ccncc2F)cc1-c1cccc(C(=O)Nc2ccc(SC[C@H]3CCOC3=O)cc2)c1 [HCl salt Form II]	4.9

Identify measured pH associated with NCc1ccc(C(=O)Nc2ccncc2F)cc1-c1cccc(C(=O)Nc2ccc(SC[C@H]3CCOC3=O)cc2)c1 (stereo in doubt) [HCl salt Form I]
4.9

# credit: patent US20260078108A1
